Provenance of the data: patent US20250230129A1

# target_entity: κ receptor (Homo sapiens (Human), UniProt P41145)
# assay_name: Competitive Kappa receptor binding assay (3H-U69593)
# experimental_setup: read-out: κ receptor Ki
Can you tell me Ki for the items I'm about to list?

Give Ki for CC(C)C[C@@H](NC(=O)[C@@H](Cc1ccccc1)NC(=O)N(CCN)Cc1cccnc1)C(=O)C[C@H](CCCCN)C(=O)N1CCC(N)(C(=O)O)CC1 [Compound 18]
0.21 nM

Hello, please tell me recorded Ki for this one: CNCCN(Cc1ccccc1)C(=O)N[C@H](Cc1ccccc1)C(=O)N[C@H](CC(C)C)C(=O)C[C@H](CCCCN)C(=O)N1CCC(N)(C(=O)O)CC1 [Compound 28]
3.31 nM

State its Ki for this compound: CC(C)C[C@@H](NC(=O)[C@@H](Cc1ccccc1)NC(=O)N(CCN)Cc1ccc(F)cc1)C(=O)C[C@H](CCCCN)C(=O)N1CCC(N)(C(=O)O)CC1 [Compound 50]
0.27 nM

Give recorded Ki. CC(C)C[C@@H](NC(=O)[C@@H](Cc1ccccc1)NC(=O)N(CCN)Cc1cncnc1)C(=O)C[C@H](CCCCN)C(=O)N1CCC(N)(C(=O)O)CC1 [Compound 19]
0.9 nM

Give the measured Ki for CC(=O)N(CCCN)C1CCN(C(=O)[C@@H](C)CC(=O)[C@@H](CC(C)C)NC(=O)[C@H](CC(=O)N(CCN)Cc2ccccc2)Cc2ccccc2)CC1 [Compound 44]
0.55 nM

Specify Ki for CC(C)C[C@@H](NC(=O)[C@@H](Cc1ccccc1)NC(=O)N(C)C(CN)c1ccccc1)C(=O)C[C@H](CCCCN)C(=O)N1CCC(N)(C(=O)OC(C)C)CC1 (stereo partly drawn) [Compound 15] and stop.
0.83 nM

---

# assay_name: PK and blood-brain barrier permeability in mice
# Assay type: in vivo
# experimental_setup: mouse, plasma; male ICR mice, intravenous 1 mg/kg; read-out: t½ (converted)
property_label: half-life (min)
Numbers only; they are read as min.

Supply reported half-life belonging to this compound: CC(C)C[C@@H](NC(=O)[C@@H](Cc1ccccc1)NC(=O)[C@H](N)Cc1ccccc1)C(=O)N[C@H](CCCCN)C(=O)N1CCC(N)(C(=O)O)CC1 [CR845, reference compound]
15.6

Fill in reported half-life for this entry: COC(=O)C1(N)CCN(C(=O)[C@@H](CCCCN)NC(=O)[C@@H](CC(C)C)NC(=O)[C@@H](Cc2ccccc2)NC(=O)N(CCN)Cc2ccccc2)CC1 [Compound 13-2]
43.2

Quote half-life reported for CC(C)C[C@@H](NC(=O)[C@@H](Cc1ccccc1)NC(=O)N(CCN)Cc1ccccc1)C(=O)N[C@H](CCCCN)C(=O)N1CCC(N)(C(=O)O)CC1 [Compound 13] please.
21

Given the compound CC(C)C[C@@H](NC(=O)[C@@H](Cc1ccccc1)NC(=O)N(Cc1ccccc1)C1CCNC1)C(=O)N[C@H](CCCCN)C(=O)N1CCC(N)(C(=O)O)CC1 (some centres unmarked) [Compound 27] , write its reported half-life.
30

State its half-life: CC(C)C[C@@H](NC(=O)[C@@H](Cc1ccccc1)NC(=O)N(CCN)Cc1ccccc1)C(=O)N[C@H](CCCCN)C(=O)N1CCC2(CC1)NC(=O)NC2=O [Compound 29]
44.4

---

# assay_name: PK and blood-brain barrier permeability in mice
# Format: in vivo
# experimental_setup: mouse, plasma; male ICR mice, intravenous 1 mg/kg
Exercise: state measured Vd for each of the compounds provided.
Reply with just the number (in L/kg).

For the compound COC(=O)C1(N)CCN(C(=O)[C@@H](CCCCN)NC(=O)[C@@H](CC(C)C)NC(=O)[C@@H](Cc2ccccc2)NC(=O)N(CCN)Cc2ccccc2)CC1 , give its measured Vd value.
0.63

Return the recorded Vd value; entry: CC(C)C[C@@H](NC(=O)[C@@H](Cc1ccccc1)NC(=O)N(C)C(CN)c1ccccc1)C(=O)N[C@H](CCCCN)C(=O)N1CCS(=N)(=O)CC1 (some centres unmarked)
0.29

Output Vd of CC(C)C[C@@H](NC(=O)[C@@H](Cc1ccccc1)NC(=O)N(CCN)Cc1ccccc1)C(=O)N[C@H](CCCCN)C(=O)N1CCS(=O)(=O)CC1
0.63

Please give the documented Vd of CC(C)C[C@@H](NC(=O)[C@@H](Cc1ccccc1)NC(=O)[C@H](N)Cc1ccccc1)C(=O)N[C@H](CCCCN)C(=O)N1CCC(N)(C(=O)O)CC1 [CR845, reference compound]
0.6

Name the recorded Vd of the item COC(=O)NC1CCN(C(=O)[C@@H](CCCCN)NC(=O)[C@@H](CC(C)C)NC(=O)[C@@H](Cc2ccccc2)NC(=O)N(C)C(CN)c2ccccc2)CC1 (some centres unmarked) in your answer.
0.54
